Assay: Half life in human liver microsomes
Type: ADME, Microsome
endpoint.label: half-life (min)

| compound | half-life / min |
| --- | --- |
| O=S(=O)(c1ccccc1)N(CC(F)(F)F)c1ccc(C(O)(C(F)(F)F)C(F)(F)F)cc1 [T091317] | 30 |
| Cc1nc2c(C(F)(F)F)cccn2c1-c1cccc(Oc2cccc(S(C)(=O)=O)c2)c1 | 30 |
| CS(=O)(=O)c1cccc(Oc2cccc(-c3c(CN4CCCCC4)nc4c(C(F)(F)F)cccn34)c2)c1 | 3 |

[a] CCS(=O)(=O)c1cccc(Oc2cccc(-c3c(C)nc4c(C(F)(F)F)cccn34)c2)c1
[b] CCc1nc2c(C(F)(F)F)cccn2c1-c1cccc(Oc2cccc(S(C)(=O)=O)c2)c1
Sort a and b by half-life descending and give the first. Mark your selection by writing its label.
b
(b: 30 min, a: 21 min)

[I] CS(=O)(=O)c1cccc(Oc2cccc(-c3c(Cc4ccccc4)nc4c(C(F)(F)F)cccn34)c2)c1
[II] CS(=O)(=O)c1cccc(Oc2cccc(-c3c(CN4CCSC4)nc4c(C(F)(F)F)cccn34)c2)c1
Sort I and II by half-life descending and give the first. Mark your selection by writing its label.
I

----------
pIC50: −log10 of the molar value.
pIC50 data for Oxysterols receptor LXR-beta (Homo sapiens) follow.

| chemical.smiles | endpoint.label | observed.measurement |
| --- | --- | --- |
| CC(C)c1nc2c(C(F)(F)F)cccn2c1-c1cccc(OCc2ccc(S(C)(=O)=O)cc2)c1 | pIC50 | < 6.00 |

Now for a further compound.
Reported pIC50 ( CC(C)c1nc2c(C(F)(F)F)cccn2c1-c1ccc(-c2ccc(S(C)(=O)=O)cc2)cc1 ) = < 6.00

----------
Experiment: AUC (0 to last) in C57 mouse at 2.5 mg/kg, po
Assay type: ADME, organism-based
Parameters: time 0 - last, dose 2.5 mg/kg, route oral
Details: plasma
endpoint.label: AUC(0-t) (ng·h/mL)
Report as a plain number; the unit ng·h/mL is understood.

Reported AUC(0-t) ( Cc1cnc2c(C(F)(F)F)cccc2c1-c1cccc(Oc2cccc(S(C)(=O)=O)c2)c1 ) = 1690
